Readings of Pre-emergence action against SETVI in % for the listed compounds
Test system: SETVI
assay summary: Herbicidal pre-emergence action 2a (greenhouse pots, visual scoring)
Format: in vivo, Setaria viridis
condition info: dosage 320 g/ha, visual scoring after about 3 weeks vs untreated controls
From the text: [table] a) Seeds of monocotyledonous and dicotyledonous weed plants and crop plants are placed in plastic or organic plant pots and covered with soil. […] After about 3 weeks, the effect of the preparations is scored visually in comparison with untreated controls as percentages. […]
metric: Pre-emergence action against SETVI in % (%)

* O=C(O)COc1nn(-c2cnccn2)c(-c2cncc(F)c2)c1Cl | 100
* COC(=O)C(C)Oc1nn(-c2cnccn2)c(-c2ccc(F)c(F)c2)c1C#N (racemic) | 100
* COC(=O)C(C)Oc1nn(-c2nccnc2F)c(-c2ccc(F)nc2)c1Br (racemic) | 90
* COC(=O)COc1nn(-c2cnccn2)c(-c2ccnc(F)c2)c1Br | 90
* COC(=O)[C@@H](C)Oc1nn(-c2cnccn2)c(-c2cccc(F)c2)c1Br | 100
* COC(=O)[C@@H](C)Oc1nn(-c2cnccn2)c(-c2ccc(F)c(F)c2)c1Br | 100
* C=CCOC(=O)C(C)Oc1nn(-c2cnccn2)c(-c2ccc(F)nc2)c1Br (racemic) | 100
* N#CCOC(=O)COc1nn(-c2cnccn2)c(-c2ccc(F)nc2)c1Br | 100

The reported numbers originate from patent US20230167088A1.
